The reported numbers originate from patent US20230303681A1.

Molecular target: T1, human TMEM106B (human, UniProt Q9NUM4 2-274)
T1 construct: Full-length, on transiently transfected HEK293 cells, or natively expressed on HeLa, U251 and A549 cells; also called huTMEM106B; huTMEM
Test: FACS HEK+huTMEM, 0.01 ug/ml

[
  {
    "binder": "anti-TMEM106B antibody TM-28 (antibody, V domains shown) VH: EVQLQQSGPVLVKPGPSVKISCMASVFTFNDYYIHWVKQSHGKSLEWIGLVYPYNGGTNYNQNFKGKATLTVDTSSRTAYMELNSLTSEDSAVYYCARSYFSNPIGYWGQGTLVTVSE VL: DIVMTQSPSSLSVSVGEKVTVSCKSSQSLLNSGNQKNYLAWYQQKPGQPPKLLIYGASTRESGVPDRFTGSGSGTDFTLTISSVQAEDLAVYYCQNDHSYPLTFGAGTKLELK",
    "MFI": 3340
  },
  {
    "binder": "anti-TMEM106B antibody TM-12 (antibody, V domains shown) VH: EVQLQQSGAELMRPGASVKLSCTASGFNIQDYYMYWVKQRPEQGLEWIGRIDPEDGDAEYAPKFQGKATMTADTSSNTAYLQLSSLTSEDTAVYYCSTRVIYDGYYRTMDCWGQGTSVTVSS VL: DVLMTQIPLSLPVSLGDQASISCRSSQTIVHSNGNTYLEWYLKKPGQSPKLLIDKISNRFSGVPDRFSGSGSGTDFTLKISRVEAEDLGVYYCFQGSHVPYTFGGGTKLEIK",
    "MFI": 3340
  },
  {
    "binder": "anti-TMEM106B antibody TM-21 (antibody, V domains shown) VH: EVQLVESGGGLVKPGGSLKLSCAASGFTFSNYAMSWVRETPEKRLEWVAFISDGGGYIYYADNVKDRFTISRDNAKNNLYLQMRHLKSEDTAMYYCARDGGTGFTYWGQGTLVTVSV VL: DIVMTQAAFSNPVTLGTSASISCRSSKSLLHSNGITYLFWYLQKPGQSPQLLIYQMSNLASGVPDRFSSSGSGTDFTLRISRVEAEDVGVYYCVQNLELPYTFGGGTKLEIK",
    "MFI": 2350
  }
]
